- Test system: U2OS
- Experiment notes: Incucyte cell viability with U2OS; note: filed as whole numbers so only -1 and 0 and 1 occur
- Assay type: toxicity, cell-based
- Condition notes: human, 0 h, 10 µM, compound concentration 10 uM, replicate number 1, timepoint 0 hours
Metric: Growth Rate
Answer as a number with no unit attached.

get_value(item= CCC1(C2=NCCN2)Cc2ccccc2O1 (stereo not drawn) , readout=Growth Rate) returns 0

get_value(item= CC(C)Oc1ccc(-c2nn([C@@H](C)c3oc4ccc(F)cc4c(=O)c3-c3cccc(F)c3)c3ncnc(N)c23)cc1F , readout=Growth Rate) returns 0

get_value(item= CN(C)CC[C@@H](c1ccc(Cl)cc1)c1ccccn1.O=C(O)/C=C\C(=O)O [DEXCHLORPHENIRAMINE MALEATE] , readout=Growth Rate) returns 0

get_value(item= COc1cccc(CNC(=O)c2nc3scc(CN(C)Cc4ccccc4)c3c(=O)[nH]2)c1 [T-26f] , readout=Growth Rate) returns 0

get_value(item= O=C(NC[C@H](O)CN1CCc2ccccc2C1)c1ccnc(NC2CCC2)c1 , readout=Growth Rate) returns 1

get_value(item= CNc1cc2[nH]c(=O)n(-c3ccc(NC(=O)NS(=O)(=O)c4ccc(Cl)s4)cc3)c(=O)c2cc1F , readout=Growth Rate) returns 1

get_value(item= O=C(O)CC1CCC2(CC1)CCN(c1cc(OC(F)(F)F)ccc1Cl)CC2 , readout=Growth Rate) returns 1

get_value(item= CC(C)CC(=O)N1CCc2nc(-c3ccc(Br)cc3)nc(N(C)Cc3ccccc3)c2C1 , readout=Growth Rate) returns 0

get_value(item= O=C(O)c1ccc2c(c1)nc(Nc1cccc(Cl)c1)c1ccncc12 , readout=Growth Rate) returns 0

get_value(item= N#Cc1ccccc1OCC(O)CNCCNC(=O)Nc1ccccc1 (stereo not drawn) , readout=Growth Rate) returns 0

get_value(item= CCCn1c(=O)c2[nH]c(C34CC5CC(CC3C5)C4)nc2n(CCC)c1=O , readout=Growth Rate) returns 1

get_value(item= CCN1CCN(Cc2ccc(NC(=O)c3ccc(C)c(Oc4ccnc5[nH]ccc45)c3)cc2C(F)(F)F)CC1.Cl.Cl.Cl.O , readout=Growth Rate) returns 0

get_value(item= Cc1cc2c(cc1N1C(=O)c3cccc4c(CCCO)ccc(c34)C1=O)n(C)c(=O)n2C , readout=Growth Rate) returns 0

get_value(item= C[C@H]1CCCN1Cc1nc2cc(NC(=O)c3ccc4cnccc4c3)ccc2[nH]1 , readout=Growth Rate) returns 0

get_value(item= Cc1nc(C#Cc2ccnc(Cl)c2)c(C)n1-c1ccc(OC(F)(F)F)cc1 , readout=Growth Rate) returns 0

get_value(item= CCC(=O)N[C@H]1CC[C@@H](C(=O)N(C)c2ccc(-c3nc4ccccc4o3)cc2)C1 , readout=Growth Rate) returns 0

get_value(item= N#Cc1c(N)nc(SCC(N)=O)c(C#N)c1-c1ccc(OCC2CC2)cc1 , readout=Growth Rate) returns 0

get_value(item= CCC(=O)N[C@@H]1CC[C@H](C(=O)N(C)c2ccc(-c3nc4ccccc4o3)cc2)C1 , readout=Growth Rate) returns 0
